All figures here come from patent US20230295310A1.

MEASUREMENT TARGET: T1, human CD3 expressed on cells (human, UniProt P07766 23-207; P04234 22-171; P09693 23-182)
T1 construct: whole, on cells; CD3 complex on Jurkat cells and on human primary T cells
T1 sequence (P07766 23-207, chain 1 of 3): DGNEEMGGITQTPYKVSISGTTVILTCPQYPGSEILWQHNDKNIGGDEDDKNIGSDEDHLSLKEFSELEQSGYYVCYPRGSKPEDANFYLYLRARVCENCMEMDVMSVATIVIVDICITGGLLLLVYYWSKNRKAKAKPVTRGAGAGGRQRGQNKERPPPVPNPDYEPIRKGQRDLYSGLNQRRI
T1 sequence (P04234 22-171, chain 2 of 3): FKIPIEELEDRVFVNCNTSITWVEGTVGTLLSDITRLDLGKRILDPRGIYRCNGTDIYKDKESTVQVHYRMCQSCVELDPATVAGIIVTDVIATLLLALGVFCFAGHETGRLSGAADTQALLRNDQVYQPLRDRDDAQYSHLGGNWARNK
T1 sequence (P09693 23-182, chain 3 of 3): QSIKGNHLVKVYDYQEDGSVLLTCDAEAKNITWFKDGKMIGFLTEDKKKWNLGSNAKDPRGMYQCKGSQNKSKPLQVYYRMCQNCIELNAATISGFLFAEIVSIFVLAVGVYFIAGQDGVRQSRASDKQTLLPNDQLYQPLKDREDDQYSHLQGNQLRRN
TEST: flow cytometry, 25 nM
MEASURE NAME: Human primary T Cell Binding (FOI)
# output: bare number, implied unit FOI

Observe how each entry below is paired with its result.
mAb 78 (antibody, V domains shown) VH: EVQLVESGGGLVQPGGSLRLSCAASGFTFSSYWMSWVRQAPGKGLEWVANIKQDGSEKYYVDSVKGRFTISRDNAKNSLYLQMNSLRAEDTAVYYCARDNSPSFYWYFDLWGRGTLVTVSS VL: DIQMTQSPSTLSASVGDRVTITCRASQSLSRWLAWYQQKPGKAPKLLIYKASSLESGVPSRFSGSGSGTEFTLTISSLQPDDFATYYCQQYYTYSRTFGQGTKVEIK :: 116
mAb 158 (antibody, V domains shown) VH: EVQLVESGGGLVQPGRSLRLSCAASGFTFADYTMHWVRQVPGKGLEWVSGISWNSGSVDYADSVKGRFTISRDNAKKTLYLQMNSLRAEDTALYYCAKDSSGYGHYYFYYLDVWGKGTTVTVSS VL: EIVMTQSPATLSVSPGERATLSCRATQSVSSNLAWYQQKPGQAPRLLIYSTSTRATGIPARFSGSRSGTEFTLTISSLQSEDSAVYYCQQYNNWPHFGQGTRLEIK :: 164
mAb 133 (antibody, V domains shown) VH: EVQLVESGGGLVKTGGSLRLSCVASGFSFKKAWMSWVRQAPGKGLEWVGRIKRNTDGGTADYAAPVKGRFTLSRDDSKKTLFLQMNSLKTEDSAVYYCVTLDSSSYYVGYYYMDVWGKGTTVTVSS VL: DIQMTQSPSSVSASVGDRVSITCRASQDINNWLAWYQQKPGKAPKLLIYTASSLQSGVPSRFSGSGSGTDFTLTIGSLQPEDFATYYCQQAHSLPITFGQGTRLEIK :: 169
mAb 129 (antibody, V domains shown) VH: EVQLVESGGDLVKTGGSLRLSCVASGFSFKKAWMNWVRQAPGKGLEWVGRIKRNTDGGATDYAAPVKDRFTLSRDDSKNTLYLQMNSLKTEDTAVYYCTTLDSSSWYVGYYYMDVWGKGTTVTVSS VL: DIHMTQSPSSVSASLGDRVTFTCRASQDINNWLAWYQQKPGKAPRLLIYTASSLQSGVPSRFSGSGSGTDFTLTISSLQPDDFATYYCQQAHSLPITFGQGTRLGIE :: 169

Read the next record carefully.
QUERY: Given the binder mAb 101 (antibody, V domains shown) VH: QGQLVESGGGVVQPGRSLRLSCAASGFTFRGFGMHWVRQAPGKGLEWVAIIYYDGKNKYYADSVKGRFTISRDNSKNMLYLQMNSLRAEDTAVYYCAKGGGYNWFDPWGQGTLVTVSS VL: DIQMTQSPSSLSASVGDRVTITCRASQSISTYLNWYQQKPGKAPKLLIYSASSLQSGVPSRFSGSGSGTDFTLTISNLQPEDFAIYYCQRSYSPPFTFGPGTKLDIR , what is its reported Human primary T Cell Binding (FOI)?
RESULT: 233
